Tested on: SNB-19 CNS
ASSAY_PROCEDURE: NCI tumour cell line growth inhibition, 48 h

COMPOUND: Cc1cccc2c1NC(=O)[C@@]21[C@H](C(=O)c2ccccc2)[C@]2(C(=O)Nc3ccccc32)[C@H]2CCCN21
GI50: 19200 nM

COMPOUND: CCOC(=O)c1c(C)[nH]c(/C=C2\N=C(c3ccc[nH]3)C=C2OC)c1C
GI50: 735 nM

COMPOUND: O=C(Nc1ccc(Cl)cc1)c1cc2cc(F)ccc2cc1O
GI50: 2200 nM

COMPOUND: O=C1CCC2=C3C4CCCCC4C(=O)C4CCCC(OC2C1)C34 (stereo not given)
GI50: 2590 nM

COMPOUND: CN(C)CCCN=c1cc2c(=O)n(CCCN(C)C)c(=O)c3c(NCCCN(C)C)cc4c(O)n(CCCN(C)C)c(=O)c1c4c3-2
GI50: 1510 nM
